target: full-length tau (T40) / 12 kD PHF-core tau fragment in fibroblast cells (3T6) (Homo sapiens, UniProt P10636); assay: cell-based
Sequence (P10636 612-707): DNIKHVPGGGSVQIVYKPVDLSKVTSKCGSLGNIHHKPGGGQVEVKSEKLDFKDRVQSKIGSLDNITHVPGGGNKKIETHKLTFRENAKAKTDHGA
readoutLabel: pEC50
Remember the convention: pEC50 equals -log10 of concentration in molar.

Q: Using known records, supply pEC50 for CCN(CC)c1ccc2nc3ccc(N(CC)CC)cc3[s+]c2c1 [ETZ]
Result: 7.22
